- Tested on: HeLa
- Protocol: Primary qHTS to identify gynecologic anti-cancer compounds using libraries of approved drugs and bioactive compounds (AID 1345084); further: on the % scale 0 is the no-effect control and ±100 the full control effect; nearly all actives have a fitted effect of over 55% in size
- Cond: Gynecologic cancer cell panel viability, ATPlite luminescence, 48 h; series mostly up to 57.5 µM
Records with an inconclusive call do not appear. The source made the active and inactive calls. The call rests on the fitted dose curve; in most records, active means well fitted cell-killing curve with a large enough effect; inconclusive means small, poorly fitted or top-dose-only effect, or effect the other way; inactive means flat fitted curve, though single readings scatter.
Measured Metric: activity change, negative = cytotoxicity

{"columns": ["Compound", "Recorded Result"],
 "data": [
  ["CC(C)N(C[C@H]1O[C@@H](n2cnc3c(N)ncnc32)[C@H](O)[C@@H]1O)C1CC(CCc2nc3ccc(C(C)(C)C)cc3[nH]2)C1 (some centres undefined)", "inactive"],
  ["COc1cc(/C=C/C(=O)OC[C@H]2O[C@H](O[C@]3(CO)O[C@H](CO)[C@@H](O)[C@@H]3O)[C@H](O)[C@@H](O)[C@@H]2O)cc(OC)c1O", "inactive"],
  ["CC1OC(OC2C(CO)OC(OCC3OC(OC(=O)C45CCC(C)(C)CC4C4=CCC6C7(C)CCC(OC8OC(C(=O)O)C(O)C(OC9OC(CO)C(O)C(O)C9O)C8O)C(C)(C)C7CCC6(C)C4(C)CC5)C(O)C(O)C3O)C(O)C2O)C(O)C(O)C1O (centres undefined)", "-1.58% [at 6.55 µM] (inactive)"],
  ["Cc1ncc([N+](=O)[O-])n1CC(O)CN1CCOCC1 (centres undefined)", "inactive"]
]}
